Target: T1, monkey CEA expressed on CHO cell surface (cynomolgus monkey)
T1 construct: also called cynoCEA-CHO; monkey CEA proteins on the cell surface
T1 chain: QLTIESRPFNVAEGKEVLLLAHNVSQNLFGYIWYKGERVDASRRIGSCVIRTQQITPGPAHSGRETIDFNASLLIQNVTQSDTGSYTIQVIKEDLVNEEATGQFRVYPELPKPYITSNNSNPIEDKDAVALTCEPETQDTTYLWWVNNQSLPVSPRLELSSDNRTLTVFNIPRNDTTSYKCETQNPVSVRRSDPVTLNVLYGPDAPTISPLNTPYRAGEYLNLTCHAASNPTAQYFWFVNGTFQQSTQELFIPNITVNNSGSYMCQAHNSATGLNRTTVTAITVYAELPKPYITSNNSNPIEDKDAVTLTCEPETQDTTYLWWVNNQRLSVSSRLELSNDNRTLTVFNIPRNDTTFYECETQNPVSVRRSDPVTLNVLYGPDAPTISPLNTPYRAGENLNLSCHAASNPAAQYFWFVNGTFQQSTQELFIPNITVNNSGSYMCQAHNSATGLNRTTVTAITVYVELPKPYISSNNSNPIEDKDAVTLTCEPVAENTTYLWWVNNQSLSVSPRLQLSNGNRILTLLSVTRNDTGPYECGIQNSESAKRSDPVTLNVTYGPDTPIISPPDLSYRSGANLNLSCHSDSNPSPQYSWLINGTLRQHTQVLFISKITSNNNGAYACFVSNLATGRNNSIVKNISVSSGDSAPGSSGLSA
Experiment: FACS, cynoCEA-CHO cells
measurement.kind: EC50 (nM)

{"columns": ["binder", "measurement.kind", "uom", "reported"],
 "data": [
  ["Hu47-6 (antibody, human IgG1, kappa, V domains shown) VH: EVQLVQSGSELKKPGASVKVSCKASGYTFTTYGMSWVRQAPGQGLKWMGWINTYSGVPTYADDFKGRFVFSLDTSVSTAYLQISSLKAEDTAVYYCARRGNYGRWDFDVWGQGTTVTVSS VL: EIVLTQSPDFQSVTPKEKVTITCSVSSTISSSNLHWYQQKPDQSPKPLIYGTSNLASGVPSRFSGSGSGTDYTLTINSLEAEDAATYYCQQWSIYPLTFGQGTKLEIKR", "EC50", "nM", 0.3],
  ["Hu63-13 (antibody, human IgG1, kappa, V domains shown, Humanized IgG1/kappa; h63VH5 + h63VL1) VH: EVQLVQSGAEVKKPGASVKVSCKASGYTFTDFYMNWVRQAPGQGLEWMGDIFPKSGNTDYNRKFKDRVTMTRDTSTSTVYMELSSLRSEDTAVYYCARSGYGNYVFDYWGQGTLVTVSS VL: DIQMTQSPSSLSASVGDRVTITCRTSQDINIYLNWYQQKPGKAPKLLIYYRSGLLSGVPSRFSGSGSGTDFTLTISSLQPEDFATYYCQQGNTLPPTFGGGTKVEIKR", "EC50", "nM", 1.71]
]}
